In this section we review reported sensor-assay potency score (higher = more potent) values for a set of sequences.
Biological target: NMD3; further: reference of the scale not given here
Assay: pooled miR-30 sensor sort-seq; sequence = guide strand
Settings: shRNA
readout label: sensor-assay potency score (higher = more potent)

TTGATTAATACCACATCTGGAA ... -0.0213
TCGAATACACACACAAATCTGG ... -0.268
TACTTAACAAGTCTGATCTTGC ... 0.186
TTGATATCATTCCAGCACCTGC ... -1.29
TTAACAAGTCTGATCTTGCTTA ... 0.213
TTGAAGGATAGCACCATTCATC ... -0.92
TTAACTTTAAGTCTCTTAGAAT ... -1.22
